Provenance of the data: PubChem BioAssay (EPA / NIEHS)

- Read-out: Pselectin, SELP (gene 6403)
- ASSAY_COMMENT: BSK_4H_Pselectin: BioMAP Diversity Plus: 4H Assay for Pselectin Biomarker Activity (AID 2283026)
- CONDITION_SET: primary human endothelial cells (HUVEC); actives raise or lower the signal
The source made the active and inactive calls. The calls were made as follows: active = hit-call score of the fitted dose curve at least 0.9, where 1 is the maximum; inactive = score below 0.9.
Outcomes you can answer with include only these: active, inactive

-- ask For "CC(CCC(=O)O)(c1ccc(O)cc1)c1ccc(O)cc1" , what call appears in the results of this test?
-- reply inactive

-- ask For C=CC(=O)OCC(C)OCC(C)OCC(C)OC(=O)C=C (configuration not stated) , what call appears in the results of this test?
-- reply active

-- ask For "CC(C)C(=O)OCCc1ccccc1" , what call appears in the results of this test?
-- reply inactive

-- ask For "O=C1CCCCCCCCCCCN1" , what call appears in the results of this test?
-- reply inactive

-- ask For "CC/C=C\C/C=C\C/C=C\CCCCCCCC(=O)OC" , what call appears in the results of this test?
-- reply active

-- ask For "C1CNCCN1" , what call appears in the results of this test?
-- reply inactive

-- ask For "CC(C)[N+](C)(CCOC(=O)C1c2ccccc2Oc2ccccc21)C(C)C" , what call appears in the results of this test?
-- reply inactive

====

- ASSAY_COMMENT: ATG_RORE_CIS: Attagene CIS-FACTORIAL HepG2 Assay for human RAR-related Orphan Receptor Element (RORE) (AID 2282959)
- CONDITION_SET: HepG2 Attagene cis-factorial RORE reporter, mRNA; actives raise or lower the signal
The source made the active and inactive calls. Rule for the calls: active = hit-call score of the fitted dose curve at least 0.9, where 1 is the maximum; inactive = score below 0.9.
PARAMETER_MEASURED: outcome

Examples with answers:
COMPOUND: CCC(C)C(=O)OC (stereo not given)
outcome: inactive
--
COMPOUND: COC(=O)c1ccc(C(=O)OC)c(C(=O)OC)c1
outcome: inactive
--
COMPOUND: C1CNCCN1
outcome: inactive
--
COMPOUND: Nc1ccc(Cl)c(N)c1
outcome: inactive
--
COMPOUND: CCCCOCCOC(=O)COc1ccc(Cl)cc1Cl
outcome: inactive

-- ask Tell me its outcome given CC1=C(O)C(=O)C(C)O1 (stereo not given) as the entry.
-- reply inactive

-- ask Tell me its outcome given "O=C(Oc1ccccc1)c1ccccc1O" as the entry.
-- reply inactive

====

- Read-out: Vascular cell adhesion molecule 1 (VCAM1), VCAM1 (gene 7412)
- ASSAY_COMMENT: BSK_LPS_VCAM1: BioMAP Diversity Plus: LPS Assay for Vascular cell adhesion molecule 1 (VCAM1) Biomarker Activity (AID 2283086)
- CONDITION_SET: primary human HUVEC with PBMC; actives raise or lower the signal
Calls of active or inactive are those of the source. How the source made its calls: active means hit-call score of the fitted dose curve at least 0.9, where 1 is the maximum; inactive means score below 0.9.
PARAMETER_MEASURED: outcome

COMPOUND: Clc1cc(Cl)c(Cl)c(Cl)c1Cl
outcome: inactive
//
COMPOUND: COC(OC)(C(=O)c1ccccc1)c1ccccc1
outcome: inactive
//
COMPOUND: O=C(Cl)c1c(Cl)c(Cl)c(C(=O)Cl)c(Cl)c1Cl
outcome: inactive
//
COMPOUND: CC(C)[N+](C)(CCOC(=O)C1c2ccccc2Oc2ccccc21)C(C)C
outcome: inactive
//
COMPOUND: CCN1CN(CC)CN(CC)C1
outcome: inactive

-- ask Tell me its outcome given "CCCCCCCCCCCC(=O)N(C)CC(=O)O" as the entry.
-- reply inactive

-- ask Tell me its outcome given CCc1cccc(C)c1N(C(=O)CS(=O)(=O)O)C(C)COC (centres undefined) as the entry.
-- reply inactive

-- ask Tell me its outcome given "Cc1ccc([N+](=O)[O-])cc1N" as the entry.
-- reply inactive

-- ask Tell me its outcome given "Nc1cccc(N)n1" as the entry.
-- reply inactive

-- ask Tell me its outcome given "O=C(O)C(F)(F)C(F)(F)C(F)(F)C(F)(F)C(=O)O" as the entry.
-- reply inactive

-- ask Tell me its outcome given "CCCCCCCO" as the entry.
-- reply inactive

-- ask Tell me its outcome given "O=C(Oc1ccccc1)c1ccccc1C(=O)Oc1ccccc1" as the entry.
-- reply inactive

-- ask Tell me its outcome given "O=C1CCCCCCCCCCC1" as the entry.
-- reply inactive

-- ask Tell me its outcome given "c1ccc2c(c1)[nH]c1ccccc12" as the entry.
-- reply inactive
